Test system: UT-SCC-24A
TEST PROTOCOL: drug sensitivity score (DSS), cell viability CellTiter-Glo; higher = more sensitive; extreme values may be limits of the assay
RUN CONDITIONS: 72 h; shRNA: shScramble
OBSERVABLE: drug sensitivity score (DSS)

{"MOLECULE": "COc1ccc(-c2ccc3ncc4c(c3c2)n(-c2ccc(N3CCNCC3)c(C(F)(F)F)c2)c(=O)n4C)cn1 [NVP-BGT226]", "EXPERIMENTAL RESULT": 20.7}
{"MOLECULE": "CN[C@@H](C)C(=O)N[C@H](C(=O)N1CCC[C@H]1c1nc(C(=O)c2ccc(F)cc2)cs1)C1CCCCC1 [NVP-LCL161]", "EXPERIMENTAL RESULT": 4.2}
{"MOLECULE": "O=C(NOCCO)c1ccc2cncn2c1Nc1ccc(I)cc1F [GDC-0623]", "EXPERIMENTAL RESULT": 1.8}
{"MOLECULE": "CC(=O)O[C@@]12CO[C@@H]1C[C@H](O)[C@@]1(C)C(=O)[C@H](O)C3=C(C)[C@@H](OC(=O)[C@H](O)[C@@H](NC(=O)OC(C)(C)C)c4ccccc4)C[C@@](O)([C@@H](OC(=O)c4ccccc4)[C@H]21)C3(C)C [Docetaxel]", "EXPERIMENTAL RESULT": 18.7}
{"MOLECULE": "CN[C@@H](C)C(=O)N[C@H]1CN(C(=O)CC(C)C)CC[C@H]2CC[C@@H](C(=O)NC(c3ccccc3)c3ccccc3)N2C1=O [AT-406]", "EXPERIMENTAL RESULT": 0}
{"MOLECULE": "CN(C)C/C=C/C(=O)Nc1cc2c(Nc3ccc(F)c(Cl)c3)ncnc2cc1O[C@H]1CCOC1 [Afatinib]", "EXPERIMENTAL RESULT": 13.4}

---

System: UT-SCC-24A
TEST PROTOCOL: drug sensitivity score (DSS), cell viability CellTiter-Glo; higher = more sensitive; extreme values may be limits of the assay
RUN CONDITIONS: 72 h; shRNA: shScramble
Reported drug sensitivity score is given for each of the following compounds.
OBSERVABLE: drug sensitivity score (DSS)

{"ITEM SMILES": "CO[C@H]1C[C@@H]2CC[C@@H](C)[C@@](O)(O2)C(=O)C(=O)N2CCCC[C@H]2C(=O)O[C@H]([C@H](C)C[C@@H]2CC[C@@H](OC(=O)C(C)(CO)CO)[C@H](OC)C2)CC(=O)[C@H](C)/C=C(\\C)[C@@H](O)[C@@H](OC)C(=O)[C@H](C)C[C@H](C)/C=C/C=C/C=C/1C", "EXPERIMENTAL RESULT": 4.4}
{"ITEM SMILES": "COc1cc(C(=O)NC2CCN(C)CC2)c(F)cc1Nc1ncc2c(n1)N(C1CCCC1)CC(F)(F)C(=O)N2C", "EXPERIMENTAL RESULT": 0}
{"ITEM SMILES": "Cn1c(=O)n(-c2ccc(C(C)(C)C#N)cc2)c2c3cc(-c4cnc5ccccc5c4)ccc3ncc21", "EXPERIMENTAL RESULT": 18}
{"ITEM SMILES": "CC(C)CC(=O)Nc1n[nH]c2c1CN(C(=O)C1CCN(C)CC1)C2(C)C", "EXPERIMENTAL RESULT": 5.8}
{"ITEM SMILES": "CC(=O)NCC(=O)N1[C@@H]2CC[C@H]1c1ccc(Nc3ncc(C(F)(F)F)c(NC4CCC4)n3)cc12", "EXPERIMENTAL RESULT": 8.5}
{"ITEM SMILES": "C#Cc1cccc(Nc2ncnc3cc(OCCOC)c(OCCOC)cc23)c1", "EXPERIMENTAL RESULT": 11.9}
{"ITEM SMILES": "Cc1cc([C@@H](C)Nc2ccccc2C(=O)O)c2nc(N3CCOCC3)cc(=O)n2c1", "EXPERIMENTAL RESULT": 1.4}
{"ITEM SMILES": "CO[C@H]1C[C@@H]2CC[C@@H](C)[C@@](O)(O2)C(=O)C(=O)N2CCCC[C@H]2C(=O)O[C@H]([C@H](C)C[C@@H]2CC[C@@H](OCCO)[C@H](OC)C2)CC(=O)[C@H](C)/C=C(\\C)[C@@H](O)[C@@H](OC)C(=O)[C@H](C)C[C@H](C)/C=C/C=C/C=C/1C", "EXPERIMENTAL RESULT": 2.9}
{"ITEM SMILES": "COc1cc2ncnc(Nc3ccc(F)c(Cl)c3)c2cc1OCCCN1CCOCC1", "EXPERIMENTAL RESULT": 12.1}
{"ITEM SMILES": "CCC1=C[C@@H]2CN(C1)Cc1c([nH]c3ccccc13)[C@@](C(=O)OC)(c1cc3c(cc1OC)N(C)[C@H]1[C@@](O)(C(=O)OC)[C@H](OC(C)=O)[C@]4(CC)C=CCN5CC[C@]31[C@@H]54)C2", "EXPERIMENTAL RESULT": 15.3}
{"ITEM SMILES": "C[C@@H]1COC(Nc2ccc3ncnc(Nc4ccc(OCc5nccs5)c(Cl)c4)c3c2)=N1", "EXPERIMENTAL RESULT": 9}
{"ITEM SMILES": "CC(=O)Nc1cccc(-n2c(=O)n(C3CC3)c(=O)c3c(Nc4ccc(I)cc4F)n(C)c(=O)c(C)c32)c1", "EXPERIMENTAL RESULT": 15.4}
{"ITEM SMILES": "O=C(NC[C@H](O)CO)c1ccncc1Nc1ccc(I)cc1F", "EXPERIMENTAL RESULT": 20.5}
